# experimental.target: T1, human recombinant A33 antigen (human, UniProt Q99795 22-235)
# T1 construct: also called rH-GPA33; rHGPA33
# T1 sequence: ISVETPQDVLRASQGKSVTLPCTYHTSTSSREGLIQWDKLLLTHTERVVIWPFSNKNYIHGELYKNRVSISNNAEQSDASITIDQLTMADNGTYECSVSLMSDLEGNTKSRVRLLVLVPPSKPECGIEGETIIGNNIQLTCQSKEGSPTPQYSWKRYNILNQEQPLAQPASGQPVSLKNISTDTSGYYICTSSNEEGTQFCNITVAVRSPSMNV
# run.description: rH-GPA33 binding ELISA
# EC50 per entry
Quick note: give the figure in µg/mL, leave out the unit.

Sample records with EC50:
>  <binder>
H31.1 #6-biotin (antibody, human IgG1, kappa, V domains shown, biotinylated antibody, sites not stated, Biotinylated form of antibody #6; also called biotinylated #6; biotinylated h31.1 #6) VH: QIQLVQSGAEVKKPGASVKVSCKASGYTFTNYGMNWVRQAPGKGLEWMGWINTYTGEPTYAQKFQGRVTFTLDTSISTAYMELSRLRSDDTAVYFCARAYYGKYFDYWGQGTTVTVSS VL: SIQMTQSPSSLSASVGDRVTITCRASQSVSNDVAWYQQKPGQSPKLLIYYASNRYSGVPDRFSGSGYGTDFTLTISSLQPEDFAVYFCQQDYSSPLTFGAGTKLEIKR

>  <EC50 / µg/mL>
12.8

$$$$
>  <binder>
humanized 31.1 antibody #6 (abb31.1-HC + abb31.1-LC) (antibody, human IgG1, kappa, V domains shown, Full heavy and light chains; supernatant in the first screen, Protein A/G purified in the second round; also called Sample ID 6; abb-HC + abb-LC) VH: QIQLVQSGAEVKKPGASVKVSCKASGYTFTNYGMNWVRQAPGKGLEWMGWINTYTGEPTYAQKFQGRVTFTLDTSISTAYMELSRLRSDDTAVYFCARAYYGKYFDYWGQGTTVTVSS VL: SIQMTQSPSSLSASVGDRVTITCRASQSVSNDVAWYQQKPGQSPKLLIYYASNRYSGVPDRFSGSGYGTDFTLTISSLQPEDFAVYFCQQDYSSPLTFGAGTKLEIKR

>  <EC50 / µg/mL>
1.23

$$$$

Incoming: Answer with the recorded EC50 for the binder listed here: humanized 31.1 antibody #5 (abb31.1-HC + cdr31.1-LC) (antibody, human IgG1, kappa, V domains shown, Full heavy and light chains; supernatant in the first screen, Protein A/G purified in the second round; also called Sample ID 5; abb-HC + cdr-LC) VH: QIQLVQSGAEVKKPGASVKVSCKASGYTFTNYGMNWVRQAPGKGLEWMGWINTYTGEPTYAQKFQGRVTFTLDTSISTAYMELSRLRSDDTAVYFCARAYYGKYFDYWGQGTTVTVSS VL: SIVMTQSPSSLSASVGDRVTITCKASQSVSNDVAWYQQKPGQSPKLLIYYASNRYTGVPDRFSGSGYGTDFTLTISSLQPEDFAVYFCQQDYSSPLTFGAGTKLEIKR
Outgoing: 0.396

Incoming: Answer with the recorded EC50 for the binder listed here: H31.1 #5-biotin (antibody, human IgG1, kappa, V domains shown, biotinylated antibody, sites not stated, Biotinylated form of antibody #5; also called biotinylated #5; biotinylated h31.1 #5) VH: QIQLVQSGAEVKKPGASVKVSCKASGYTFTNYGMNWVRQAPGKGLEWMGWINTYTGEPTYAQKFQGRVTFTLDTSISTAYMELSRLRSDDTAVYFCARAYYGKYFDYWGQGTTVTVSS VL: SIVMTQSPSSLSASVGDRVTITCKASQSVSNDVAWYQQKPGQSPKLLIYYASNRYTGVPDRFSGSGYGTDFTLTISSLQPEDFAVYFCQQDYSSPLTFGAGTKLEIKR
Outgoing: 0.679
